settings: 295.65 K; 101.33 kPa; Liquid; Pulse-echo method
ASSAY READOUT: speed of sound (m/s)

# MOLECULE, speed of sound (m/s)
data = [
    ("C[NH2+]CCO.O=C[O-] [2-hydroxy-N-methylethanaminium formate]", 1820.2),
    ("CCCCC(=O)[O-].C[NH2+]CCO [2-hydroxy-N-methylethanaminium pentanoate]", 1556.7),
    ("CCCC(=O)[O-].C[NH2+]CCO [N-methyl-2-hydroxyethylammonium butanoate]", 1622.5),
    ("CCC(=O)[O-].C[NH2+]CCO [2-hydroxy-N-methylethanaminium propionate]", 1697.4),
    ("CC(C)C(=O)[O-].C[NH2+]CCO [2-hydroxy-N-methylethanaminium isobutyrate]", 1618.4),
]
